molecular target: KRAS-G12V antigen peptide (Homo sapiens, UniProt P01116, G12V); assay: Emax and EC50 (functional avidity) of TCR MHC-II binding region mutants, Jurkat-NFAT-Luc with peptide-loaded SW620-DPB cells; assay type: cell-based; design: expressed in transfected cells; host or cells: SW620-DPB cells (SW620 expressing HLA-DPB1*03:01); the peptide is synthetic; conditions: G12V antigen peptide 10 μg/ml, 10-fold dilution, 5 concentrations
Measured property: EC50 μg/ml (Functional Avidity)

β56Q-W (TCR) TCR alpha: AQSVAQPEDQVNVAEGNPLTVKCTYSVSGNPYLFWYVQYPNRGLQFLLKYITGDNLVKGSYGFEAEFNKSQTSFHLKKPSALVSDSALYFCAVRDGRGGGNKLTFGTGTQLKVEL TCR beta: GITQSPKYLFRKEGQNVTLSCEQNLNHDAMYWYRQDPGQGLRLIYYSQIVNDFWKGDIAEGYSVSREKKESFPLTVTSAQKNPTAFYLCASSPGQRDNSPLHFGNGTRLTVT = 0.556 µg/mL
β56Q-E (TCR) TCR alpha: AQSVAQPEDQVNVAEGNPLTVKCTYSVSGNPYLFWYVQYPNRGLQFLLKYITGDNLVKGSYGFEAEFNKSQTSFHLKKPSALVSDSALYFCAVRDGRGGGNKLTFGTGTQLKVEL TCR beta: GITQSPKYLFRKEGQNVTLSCEQNLNHDAMYWYRQDPGQGLRLIYYSQIVNDFEKGDIAEGYSVSREKKESFPLTVTSAQKNPTAFYLCASSPGQRDNSPLHFGNGTRLTVT = 1.052 µg/mL

// moving on: another record for EC50 μg/ml (Functional Avidity)
# EC50 μg/ml (Functional Avidity) lookup, item β56Q-H (TCR) TCR alpha: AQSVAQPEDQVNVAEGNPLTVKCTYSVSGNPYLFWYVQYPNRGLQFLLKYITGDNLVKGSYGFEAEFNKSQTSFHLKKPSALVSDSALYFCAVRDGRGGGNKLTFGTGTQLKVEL TCR beta: GITQSPKYLFRKEGQNVTLSCEQNLNHDAMYWYRQDPGQGLRLIYYSQIVNDFHKGDIAEGYSVSREKKESFPLTVTSAQKNPTAFYLCASSPGQRDNSPLHFGNGTRLTVT
1.263 µg/mL
